Tested on: Human rhinovirus 1A
experiment-summary: Concentration required to reduce Rhino virus type 1A induced plaque formation in HeLa cell culture to 50% of control
Assay type: functional
condition-info: read-out: ID50 (the source's name)
pIC50: −log10 of the molar value.
measured-endpoint: pIC50

compound | observed-value
Cc1ccc(C2CCc3cc(Br)cnc3O2)cc1 (stereo not drawn) | 7.15
CSc1cnc2c(c1)CCC(c1ccc(Cl)c(Cl)c1)O2 (stereo not drawn) | 6.92
Clc1ccc(C2CCc3cccnc3O2)cc1Cl (stereo not drawn) | 7.15
